Reported Ki values for a set of compounds
Target: Cysteinyl leukotriene receptor 1 (Cavia porcellus, UniProt Q2NNR5)
Sequence (Q2NNR5 whole entry): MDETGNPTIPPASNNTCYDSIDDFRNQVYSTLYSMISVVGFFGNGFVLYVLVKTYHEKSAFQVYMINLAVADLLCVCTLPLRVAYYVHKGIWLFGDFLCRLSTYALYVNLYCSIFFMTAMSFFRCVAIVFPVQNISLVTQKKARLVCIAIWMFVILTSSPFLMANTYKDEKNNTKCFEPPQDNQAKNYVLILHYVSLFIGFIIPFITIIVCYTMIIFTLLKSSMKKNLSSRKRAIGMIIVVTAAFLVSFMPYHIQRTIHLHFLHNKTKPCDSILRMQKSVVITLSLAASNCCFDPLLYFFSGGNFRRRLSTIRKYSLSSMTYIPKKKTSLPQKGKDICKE
Assay: Displacement of [3H]leukotriene D4 (LTD4) from receptor in guinea pig lung membranes
Format: cell membranes, Membrane
OBSERVABLE: Ki (nM)

[[record]]
compound = "Cc1nc2cnccc2n1-c1ccc(OCc2cccc(/C=C/c3ccc4ccccc4n3)c2)cc1"
target_under_test = "Cysteinyl leukotriene receptor 1 (Cavia porcellus, UniProt Q2NNR5)"
observable = "Ki"
unit_name = "nM"
modifier_sign = "="
quantitative_readout = 73

[[record]]
compound = "Cc1nc2cnccc2n1-c1ccc(OCc2cccc(/C=C/c3nc4cc(F)ccc4s3)c2)cc1"
target_under_test = "Cysteinyl leukotriene receptor 1 (Cavia porcellus, UniProt Q2NNR5)"
observable = "Ki"
unit_name = "nM"
modifier_sign = "="
quantitative_readout = 34

[[record]]
compound = "CCOC(=O)C1=C(c2ccc(-n3c(C)nc4cnccc43)cc2)NC(C)=C(C(=O)Nc2ccccn2)C1c1ccccc1Cl (stereo not drawn)"
target_under_test = "Cysteinyl leukotriene receptor 1 (Cavia porcellus, UniProt Q2NNR5)"
observable = "Ki"
unit_name = "nM"
modifier_sign = ">"
quantitative_readout = 30000


====

Assay: Inhibitory concentration against 5-hydroxytryptamine 1 receptor
pIC50: −log10 of the molar value.
OBSERVABLE: pIC50

[[record]]
compound_structure = "Cc1nc2cnccc2n1-c1ccc(OCc2cccc(/C=C/c3ccc4ccc(Cl)cc4n3)c2)cc1"
observable = "pIC50"
result = "< 5.00"

[[record]]
compound_structure = "Cc1nc2cnccc2n1-c1ccc(OCc2cccc(/C=C/c3nc4cc(F)ccc4s3)c2)cc1"
observable = "pIC50"
result = "< 5.00"


====

Test system: Cavia porcellus
Test: Combined airway obstructive effect against LTD4 stimulated by aerosolized antigen challenge in guinea pigs after peroral administration
Format: functional
OBSERVABLE: ED50

[[record]]
compound = "COc1cc(C(=O)NS(=O)(=O)c2ccccc2C)ccc1Cc1cn(C)c2ccc(NC(=O)OC3CCCC3)cc12"
result = "3.5 mg/kg"

[[record]]
compound = "CCOC(=O)C1=C(c2ccc(-n3c(C)nc4cnccc43)cc2)NC(C)=C(C(=O)Nc2ccccn2)C1c1ccccc1Cl (centres undefined)"
result = "1.9 mg/kg"

[[record]]
compound = "Cc1nc2cnccc2n1-c1ccc(OCc2cccc(/C=C/c3nc4cc(F)ccc4s3)c2)cc1"
result = "1.8 mg/kg"

[[record]]
compound = "Cc1nc2cnccc2n1-c1ccc(OCc2cccc(/C=C/c3ccc4ccc(Cl)cc4n3)c2)cc1"
result = "1.7 mg/kg"


====

Target: UniProtKB P14416
Sequence (P14416 whole entry): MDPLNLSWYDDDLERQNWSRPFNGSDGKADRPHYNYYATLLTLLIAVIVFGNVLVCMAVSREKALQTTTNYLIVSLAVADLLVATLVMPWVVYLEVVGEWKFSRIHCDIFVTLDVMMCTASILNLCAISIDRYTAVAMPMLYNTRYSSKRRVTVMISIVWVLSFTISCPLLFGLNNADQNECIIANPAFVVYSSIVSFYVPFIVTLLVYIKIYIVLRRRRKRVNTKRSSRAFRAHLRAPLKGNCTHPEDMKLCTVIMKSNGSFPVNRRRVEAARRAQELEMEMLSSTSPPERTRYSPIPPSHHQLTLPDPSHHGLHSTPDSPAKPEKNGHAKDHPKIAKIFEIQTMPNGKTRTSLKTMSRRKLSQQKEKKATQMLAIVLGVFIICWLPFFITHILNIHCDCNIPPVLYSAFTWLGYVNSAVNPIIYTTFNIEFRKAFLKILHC
Assay: Inhibitory concentration against Dopamine receptor D2
pIC50: −log10 of the molar value.
OBSERVABLE: pIC50

[[record]]
compound_structure = "COc1cc(C(=O)NS(=O)(=O)c2ccccc2C)ccc1Cc1cn(C)c2ccc(NC(=O)OC3CCCC3)cc12"
target_under_test = "UniProtKB P14416"
result = "< 5.00"

[[record]]
compound_structure = "Cc1nc2cnccc2n1-c1ccc(OCc2cccc(/C=C/c3ccc4ccc(Cl)cc4n3)c2)cc1"
target_under_test = "UniProtKB P14416"
result = "< 5.00"

[[record]]
compound_structure = "Cc1nc2cnccc2n1-c1ccc(OCc2cccc(/C=C/c3nc4cc(F)ccc4s3)c2)cc1"
target_under_test = "UniProtKB P14416"
result = "< 5.00"

